Target: T1, USP38, Q8NB14
T1 chain: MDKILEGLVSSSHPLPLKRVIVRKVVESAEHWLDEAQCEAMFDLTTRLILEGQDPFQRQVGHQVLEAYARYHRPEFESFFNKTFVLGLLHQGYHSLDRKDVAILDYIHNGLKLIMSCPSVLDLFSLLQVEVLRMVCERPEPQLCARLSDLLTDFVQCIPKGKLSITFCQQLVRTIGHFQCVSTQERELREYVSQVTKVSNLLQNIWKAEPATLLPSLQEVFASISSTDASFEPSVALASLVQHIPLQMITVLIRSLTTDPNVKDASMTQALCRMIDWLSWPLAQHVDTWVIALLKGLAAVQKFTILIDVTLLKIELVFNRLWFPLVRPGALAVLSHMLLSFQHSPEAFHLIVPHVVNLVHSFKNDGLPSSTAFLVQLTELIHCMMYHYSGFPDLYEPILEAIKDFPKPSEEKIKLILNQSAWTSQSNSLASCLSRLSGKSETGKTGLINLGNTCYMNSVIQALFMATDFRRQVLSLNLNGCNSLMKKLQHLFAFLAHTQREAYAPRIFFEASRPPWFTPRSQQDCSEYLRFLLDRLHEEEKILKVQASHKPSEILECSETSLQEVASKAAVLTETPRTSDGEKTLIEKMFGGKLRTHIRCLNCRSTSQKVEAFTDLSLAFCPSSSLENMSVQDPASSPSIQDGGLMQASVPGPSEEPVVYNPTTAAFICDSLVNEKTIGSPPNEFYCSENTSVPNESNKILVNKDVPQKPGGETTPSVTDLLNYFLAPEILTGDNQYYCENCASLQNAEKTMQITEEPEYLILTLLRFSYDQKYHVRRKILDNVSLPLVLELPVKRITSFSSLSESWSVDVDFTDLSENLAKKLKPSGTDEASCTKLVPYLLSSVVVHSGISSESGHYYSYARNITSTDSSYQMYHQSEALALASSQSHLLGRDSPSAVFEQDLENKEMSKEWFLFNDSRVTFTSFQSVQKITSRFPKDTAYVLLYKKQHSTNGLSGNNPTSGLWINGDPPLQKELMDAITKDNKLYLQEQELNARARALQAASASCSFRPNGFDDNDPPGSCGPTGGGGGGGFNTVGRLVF
Assay: median log2 fold change of GCK-ALFA target abundance (FLAG IP / Myc IP barcode read proportion) (log2 ratio); each designed protein is fused to an ALFA-tag nanobody in HEK293 cells to bring the named protein to FLAG-tagged glucokinase (GCK); Myc marks an untargeted standard; higher = target protein stabilised (more abundant)
Conditions: target protein: 3xFLAG-MCP-GCK-ALFA reporter; HEK293 landing pad (RPLP)
As shown below, each of these binders has a reported median log2 fold change value.
# print the numeric value only

Sample answers from the record:
usp_38_diff_out_22_74_483 (protein) SAEEAETEALKKEIDEKVKKTKEELDRLRAEAKAAIAAGRYREARRLLAEMDDLVTDTVIWLNKVALAHGAVHDYALAKANEIREYATKINAELEALLEA = 0.0676
usp_38_diff_out_18_14_263 (protein) SEELAQADIDALNLLKKDVEEDTERVIRLLEKSKDDPERVKRIYERALRNLAGVKKYAEEVKKEAEERGNEETIKAANELLKTIEEAKKRLEEKYKEVMK = 0.123

Value of median log2 fold change reported for the binder usp_38_diff_out_18_28_376 (protein) SAAERARLEAELAALRAELDALIDEATATATEALEAHPDSEEVWALIDALFDALGAAAAALEEARRLLRAGGPLAEVQALLDRAREHLRRARELLAELKA is -0.0614

Value of median log2 fold change reported for the binder usp_38_diff_out_5_164_600 (protein) SVEESLAEIDKITAELKEELKALLAEAKENPEKLKEYKKKMTEKMNEAIDKMNEITTKTLEAYPEQADTILAHYDRRMTEMLTAYNEAMKELEALEKELA is -0.0274

Value of median log2 fold change reported for the binder usp_38_diff_out_4_99_569 (protein) EKEKKVKEVKKIKEKIEELLKEAEEAEKLSVEERRKKAEEIRKELDELAKKLGKLYFEARDSGDKELIEAVNKEADKAVDAYKEAATKLHELEAKVQEEE is -0.151

Value of median log2 fold change reported for the binder usp_38_diff_out_3_136_527 (protein) ATAAVRARIRALEETARELKRSSLRLVEELLKDPNVTPEDLEELRKIVLDSFRDLEEEVRRLAAAEPAVAEEARRAEEEIRRYREEVERAFEEAIAAKKA is -0.205

Value of median log2 fold change reported for the binder usp_38_diff_out_18_28_389 (protein) AAAARAALEAELAALRAELDALIDEATELATRKLEEHPDDEEVWELVDRLFDALGRAAAHLEEARRLLREGGDLAAVQAELDAARAALAEAKRLLEELKA is -0.314

Value of median log2 fold change reported for the binder usp_38_diff_out_4_126_543 (protein) DREKAFDELAKEAEALMKEAKEYLEKAKEAMDKDPEKAKEYLDKAYEALGKLSKALREMRRIARDDPELRKRYKELLKKANELVSEFTKVAEELLLKLSE is -0.661

Value of median log2 fold change reported for the binder usp_38_diff_out_10_51_2 (protein) SVEEAREEIEELLEEVEEVFKTGSLDEQLRAGLNALNRLREIALEYPEVEEEVIEAMVRIVELAKPNPELYEDMKFAARFKAATVNDEVAERVRERIDAL is 0.0864
